# experiment description: PhoP regulon inhibitors, Salmonella typhi PhoP promoter GFP reporter, confirmatory (AID 1850);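 also: 0% = induced wells with vehicle and 100% = uninduced wells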
# condition description: fluorescence, 4 h, at 50 µM, active compounds read high
Screen size: about 310,000 compounds; about 1,000 (0.32%) were called active. Only a sample is shown. Results with a measured potency or affinity are listed apart.
Catalogue of molecules with associated inhibition
Write the number in % without appending the unit.

molecule	inhibition [%]
COc1cc2c(cc1OC)C(C)N(C(=O)c1c(C)noc1C)CC2 (stereo not given)	-18.4
CCc1cccc2c(C(=O)COC(=O)c3ccccc3)c[nH]c12	-6.08
Cn1c(SCC(=O)N/N=C/c2ccc([N+](=O)[O-])s2)nnc1-c1ccccc1	17.5

### Prompt Answer with the recorded inhibition of `CCCc1cc(C(=O)OC)c(NC(=O)OCC)s1` only.
### Response 0.48

### Prompt Tell me its inhibition given `COC(=O)c1sc2ccccc2c1NC(=O)c1ccc(S(=O)(=O)N2CCCCC2)cc1` as the entry.
### Response 10.9

### Prompt Tell us which inhibition value is on record for `CN(c1ccccc1C(=O)Nc1ccc(S(=O)(=O)N2CCCC2)cc1)S(C)(=O)=O`
### Response 9.12

### Prompt Provide measured inhibition value, entry: `COc1ccc2[nH]c(C)c(CCNCc3cc(OC)c(OC)c(OC)c3)c2c1`
### Response 7.48

### Prompt Answer with reported inhibition of `COc1cc(/C=N/N=C(N)N)ccc1OCc1ccc(Cl)cc1`
### Response 49.6

### Prompt # return recorded inhibition for input `CC(C)COCc1ccc(O)c2ncccc12`
### Response 1.72

### Prompt Please look at this molecule and report its inhibition: `Cc1cc(OCC(=O)N2CCC[C@@H]2C(=O)O)c2c(C)c(C)c(=O)oc2c1`
### Response 5.08

### Prompt Please indicate inhibition recorded for `C#CCOCCOCCOCCNc1nc(N2CCN(C(=O)[C@H]([C@@H](C)CC)n3cc(CCCCN)nn3)CC2)nc(N2CCN(C(=O)[C@H]([C@@H](C)CC)n3cc(CCCN=C(N)N)nn3)CC2)n1`
### Response -1.05

###

# experiment description: PhoP regulon inhibitors, Salmonella typhi PhoP promoter GFP reporter, confirmatory (AID 1850);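 also: 0% = induced wells with vehicle and 100% = uninduced wells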
# condition description: fluorescence, 4 h, at 50 µM, active compounds read high
The whole screen tested about 310,000 compounds, of which about 1,000 (0.32%) were called active. The list is a sample of the results. Measured potencies and affinities stand elsewhere.
result type: inhibition (%)
# output: bare number, implied unit %

Answered cases to consult:
                                  structure  recorded_number
0  COc1cc(NC(=O)CSc2nnc(-c3ccncc3)n2C2CCCCC2)ccc1NC(=O)c1ccco1            -17.8
1  CCOC(=O)N1CCC(=NNC(=O)COc2ccc(C#N)cc2)CC1            -4.18
2             O=[N+]([O-])c1ccc(O)c2cccnc12             2.39
3            O=[N+]([O-])c1cccc2c(Cl)ccnc12             5.29
4  COc1ccc(-c2sc(Nc3ccc(F)c(F)c3F)nc2CCC(=O)NN)cc1             4.23
5  CN1CCN(c2nc(-c3ccc(Cl)c(Cl)c3)nc3ccccc23)CC1            -3.79
6  CCc1ccc(Nc2nnc(SCc3cc(=O)n4ccsc4n3)s2)cc1            -7.77
7                   Nc1[nH]ncc1-c1ccc(F)cc1            -6.64
8   CN1CCN(C2=Cc3ccccc3Sc3cc(F)c(F)cc32)CC1             56.3
9  CN1CCN(C2=Cc3ccc(Cl)cc3Sc3ccc(F)cc32)CC1             2.54

### Prompt Please look at this compound and report its inhibition: `Oc1ccc(F)c2cccnc12`
### Response 8.36

### Prompt For the compound `Nc1[nH]ncc1-c1ccc(Cl)cc1` , give its measured inhibition value.
### Response 9.56

###

# experiment description: PhoP regulon inhibitors, Salmonella typhi PhoP promoter GFP reporter, confirmatory (AID 1850);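 also: 0% = induced wells with vehicle and 100% = uninduced wells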
# condition description: fluorescence, 4 h, at 50 µM, active compounds read high
Hit rate of the full screen: of about 310,000 compounds, about 1,000 (0.32%) were called active. Not all results are given here. Entries with a potency or affinity are not part of this list.
result type: inhibition (%)
Write down the numeric answer in % and omit the unit.

Field: example entries. Status: answers known.
>>> df
                                   compound  result_type  recorded_number
0              CCn1nnc(NC(=O)c2ccc(Br)o2)n1   inhibition             3.35
1  CN(C)CCCn1c2c(c(SCC(=O)Nc3nccs3)nc1=O)CCC2   inhibition            -3.03
2  O=C(c1cccc(S(=O)(=O)N2CCCC2)c1)N1CCN(c2ccccc2F)CC1   inhibition            -7.17
3  Cc1ccc(S(=O)(=O)N(C)C)cc1NC(=O)COC(=O)/C=C/c1ccc2ccccc2n1   inhibition            -5.07
4  Cc1c(NC(=O)C(=O)/C=C(\O)c2ccc(Cl)cc2)c(=O)n(-c2ccccc2)n1C   inhibition            -8.97

Consider the record given below.
### Prompt Using known records, supply inhibition for `CCn1nnc(NC(=O)c2ccc(-c3ccccc3[N+](=O)[O-])o2)n1`
### Response 11.3

###

# experiment description: PhoP regulon inhibitors, Salmonella typhi PhoP promoter GFP reporter, confirmatory (AID 1850);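 also: 0% = induced wells with vehicle and 100% = uninduced wells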
# condition description: fluorescence, 4 h, at 50 µM, active compounds read high
The campaign covered roughly 310,000 compounds. About 1,000 (0.32%) were called active. The list is a sample of the results. Entries with a potency or affinity are not part of this list.
result type: inhibition (%)
Output spec: scalar in %, unitless text.

### Prompt Look up and report measured inhibition for this entry: Cc1ccccc1-n1ncc2c1CC(C)(C)CC2NC(=O)C1CCC1 (stereo not drawn)
### Response 6.32

### Prompt Provide inhibition value for the following compound: `O=C(CSc1nc2ccccc2[nH]1)Nc1ccccc1F`
### Response -4.68

### Prompt Specify reported inhibition for the compound shown: `COc1ccc(NC(=O)Cc2ccccc2)cc1`
### Response -3.71

###

# experiment description: PhoP regulon inhibitors, Salmonella typhi PhoP promoter GFP reporter, confirmatory (AID 1850);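 also: 0% = induced wells with vehicle and 100% = uninduced wells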
# condition description: fluorescence, 4 h, at 50 µM, active compounds read high
About 1,000 (0.32%) of roughly 310,000 compounds were called active. These entries were drawn from the full list. Measured potencies and affinities stand elsewhere.
result type: inhibition (%)
State just the number; it will be interpreted in %.

Sample records with inhibition:
                                  structure  result_type  unit  recorded_number
0  COc1ccc(CC(=O)Oc2ccc(C(C)C)cc2)cc1S(=O)(=O)N1CCOCC1   inhibition     %             5.73
1  Cc1ccc(Cl)cc1N1CCN(S(=O)(=O)c2c(C)[nH]c(=O)[nH]c2=O)CC1   inhibition     %             8.84

### Prompt Report measured inhibition; entry is `CC(C)(C)OC(=O)N1CCC[C@@H]1CO`
### Response -5.17

###

inhibition values by entry
# experiment description: PhoP regulon inhibitors, Salmonella typhi PhoP promoter GFP reporter, confirmatory (AID 1850);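 also: 0% = induced wells with vehicle and 100% = uninduced wells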
# condition description: fluorescence, 4 h, at 50 µM, active compounds read high
About 1,000 (0.32%) of roughly 310,000 compounds were called active. The list is a sample of the results. Results with a measured potency or affinity are listed apart.
Form entry: value (%) — number only.

>>> df
                                   compound  result_type  unit  recorded_number
0  CS(=O)(=O)Nc1ccc(C(=O)Nc2ccc(S(=O)(=O)N3CCCC3)cc2)cc1   inhibition     %             -7.4
1  CCCCn1c(N)c(N(CC(C)C)C(=O)c2cc(-c3ccc(OC)c(OC)c3)nc3ccccc23)c(=O)[nH]c1=O   inhibition     %             11.8
2  COC(=O)c1ccc2c(=O)n(Cc3ccc(C(=O)NCCCN4CCC(C)CC4)cc3)c(=S)[nH]c2c1   inhibition     %             2.98
3  CCOc1ccc2c(c1)OC(c1ccc(C)cc1)(C(F)(F)F)NC2=O (centres undefined)   inhibition     %             2.02
4  C/C(=N\Nc1nc2ccccc2[nH]1)c1ccc2c(c1)OCCO2   inhibition     %             11.8
5             CN(C)CCNC(=O)COc1ccc(Cl)cc1Cl   inhibition     %             1.91

### Prompt Entry CCOc1ccc(S(=O)(=O)NC(C)C(=O)NCc2ccccn2)cc1 (centres undefined) needs its inhibition filled in; supply it.
### Response -3.4

### Prompt Please list inhibition recorded for the compound `CCc1ccc(/C=C/C(=O)c2cc(Br)ccc(=O)c2O)cc1`
### Response -13.9

### Prompt Using the record for `c1ccc(C[C@H]2CN=C(Nc3ccccc3)N2CC2CCC2)cc1` , state its measured inhibition.
### Response 0.99

### Prompt Specify measured inhibition for `CCOCCOC(NC(=O)c1ccccc1)(C(F)(F)F)C(F)(F)F` .
### Response -1.49

### Prompt Please indicate inhibition recorded for `N#C/C(=C\c1cc(O)c(O)c(O)c1)C(N)=O`
### Response 5.26

### Prompt Let me know recorded inhibition for `CC(C)Oc1ccc(Cc2cnc(=S)[nH]c2N)cc1` , thanks.
### Response 7.33

### Prompt Entry `CCC[C@@H](CNC)NC[C@H](Cc1ccccc1)NCCCCc1ccccc1` needs its inhibition filled in; supply it.
### Response 3.99

### Prompt Give the measured inhibition for `Cc1cccc(/C=C/C(=O)c2cc(Br)ccc(=O)c2O)c1`
### Response 4.56

All values here come from PubChem BioAssay AID1850.
